Every entry's value here was drawn from PubChem BioAssay AID485364.

EXPERIMENTAL_SYSTEM: Schistosoma mansoni thioredoxin glutathione reductase (TGR) (UniProt Q962Y6)
MEASUREMENT_DESCRIPTION: qHTS Assay for the Inhibitors of Schistosoma Mansoni Peroxiredoxins; further: nearly all actives have a fitted effect of over 60% in size
TEST_CONTEXT: purified TGR, DTNB reduction, TNB absorbance 405 nm; series mostly up to 114 µM
About 11,000 (3.1%) of roughly 360,000 compounds were called active. About 4% were inconclusive and are not listed. The call rests on the fitted dose curve; in most records, active means well fitted inhibition curve with a large enough effect; inconclusive means small, poorly fitted or top-dose-only effect; inactive means no such curve, though single readings can be large or run the other way. The sample holds actives, similar compounds and a random draw of the others, so the mix is not that of the screen.
In this exercise, the only acceptable responses are yes = active, no = inactive

Record excerpt, results attached:
COc1cccc(N2CC(NC(=O)/C=C\c3ccccc3)CC2=O)c1 (stereo not given)    no
Cc1cc(-c2ccc(/C=N/n3cnnc3)o2)c([N+](=O)[O-])cc1C    yes
Cc1cc([N+](=O)[O-])c(-c2ccc(/C=N/n3cnnc3)o2)cc1Cl    yes
COc1cccc(NC(=O)CSC2=Nc3ccccc3C3=NC(CC(=O)NC4CCCCC4)C(=O)N23)c1 (stereo not given)    no
COc1cc(C2C3C(=O)N(c4ccccc4)C(=O)C3ON2c2ccccc2)ccc1O (stereo not given)    no
CCOc1ccc(-n2c(SCC(=O)NCc3ccccc3)nc3n[nH]c(C)c3c2=N)cc1    no
COC(=O)C1=C(O)/C(=C/c2ccc(OCC(=O)Nc3ccccc3)cc2)N=C1C    no
Cc1cc(C)c([N+](=O)[O-])cc1-c1ccc(/C=N/NC(=O)c2nonc2N)o1    no
Cc1ccccc1CNC(=O)CCCn1nc(C)c2sc3ccccc3c2c1=O    no
Oc1ccc(-c2nc3ccc(Cl)cn3c2Nc2ccc3c(c2)OCO3)cc1    no

[ask] Status in this test for COc1cccc(OCCn2c(-c3ccc(Br)cc3)nc3ccccc3c2=O)c1 ?
[reply] no

[ask] Then what about the compound CCCOc1ccc(C2c3c(-c4ccccc4O)n[nH]c3C(=O)N2Cc2cccnc2)cc1 (stereo not given) ?
[reply] no

[ask] Proceed to O=C(c1cnn(-c2ccc(F)cc2)c1-n1cccc1)N1CCN(c2ccc(F)cc2)CC1
[reply] no

[ask] Same lookup for Cc1cc(C)cc(-n2c(SCC(=O)NCC3CCCO3)nc3c([nH]c4ccccc43)c2=O)c1 (stereo not given) , please.
[reply] no

###

EXPERIMENTAL_SYSTEM: Schistosoma mansoni thioredoxin glutathione reductase (TGR)
MEASUREMENT_DESCRIPTION: qHTS Assay for the Inhibitors of Schistosoma Mansoni Peroxiredoxins; further: nearly all actives have a fitted effect of over 60% in size
TEST_CONTEXT: purified TGR, DTNB reduction, TNB absorbance 405 nm; series mostly up to 114 µM
About 11,000 (3.1%) of roughly 360,000 compounds were called active. Another 4% or so got no clear call; they are omitted. Calls come from the whole dose curve; as a rule, active = well fitted inhibition curve with a large enough effect; inconclusive = small, poorly fitted or top-dose-only effect; inactive = no such curve, though single readings can be large or run the other way. The list comes from a sample in which actives are over-represented; it also holds close analogues and randomly drawn compounds.
Outcome field: choose from active, inactive

CCc1ccc2ncc3c(-c4ccc(C)cc4)nn(CC(=O)NCc4ccccc4)c3c2c1    inactive
CN(C)S(=O)(=O)c1cccc(NC(=S)N/N=C/C(=O)c2ccccc2)c1    inactive

[ask] What outcome does the record of this test show for COc1cc2c(=O)c(S(=O)(=O)c3ccc(C(C)C)cc3)cn(Cc3ccccc3C)c2cc1OC ?
[reply] inactive

[ask] Same again, this time with Cc1ccc(OCC(=O)Nc2ccc(Cl)c(-c3nc4ccccc4[nH]3)c2)cc1C
[reply] inactive

[ask] Now consider COc1ccc(NC(=O)COCc2cc(-c3ccco3)on2)cc1 .
[reply] inactive

[ask] Same question for CN(C)S(=O)(=O)c1ccc(NC(=O)N2CCOCC2)cc1 please.
[reply] inactive
